Can you tell me pKi for the items I'm about to list?
Species: Rattus norvegicus
Assay: Inhibitory activity towards [3H]dopamine uptake in rat corpus striatum P2 synaptosomes
Give bare numbers, as −log10 of the molar value.

Would you please look over these solved cases?
[
  {
    "Compound": "COC(=O)C1C(OC(=O)c2ccccc2)CC2CCC1N2CCO (configuration not stated)",
    "Recorded number": 5.80
  },
  {
    "Compound": "COC(=O)CN1C2CCC1C(C(=O)OC)C(OC(=O)c1ccccc1)C2 (configuration not stated)",
    "Recorded number": 5.80
  },
  {
    "Compound": "O=C(OC1CC2CCC3C1C(=O)NN23)c1ccccc1 (configuration not stated)",
    "Recorded number": 3.94
  },
  {
    "Compound": "COC(=O)C1C(OC(=O)c2ccccc2)CC2CCC1N2CC(=O)O (configuration not stated)",
    "Recorded number": 5.68
  }
]

Go through the list and state pKi for each entry.
1. COC(=O)C1C(OC(=O)c2ccccc2)CC2CCC1N2[N+](=O)[O-] (configuration not stated)
2. COC(=O)C1C(OC(=O)c2ccccc2)CC2CCC1N2N=O (configuration not stated)

[4.67, 3.64]

====

Can you tell me pKi for the items I'm about to list?
Molecular target: UniProt P23977
Sequence (P23977 whole entry): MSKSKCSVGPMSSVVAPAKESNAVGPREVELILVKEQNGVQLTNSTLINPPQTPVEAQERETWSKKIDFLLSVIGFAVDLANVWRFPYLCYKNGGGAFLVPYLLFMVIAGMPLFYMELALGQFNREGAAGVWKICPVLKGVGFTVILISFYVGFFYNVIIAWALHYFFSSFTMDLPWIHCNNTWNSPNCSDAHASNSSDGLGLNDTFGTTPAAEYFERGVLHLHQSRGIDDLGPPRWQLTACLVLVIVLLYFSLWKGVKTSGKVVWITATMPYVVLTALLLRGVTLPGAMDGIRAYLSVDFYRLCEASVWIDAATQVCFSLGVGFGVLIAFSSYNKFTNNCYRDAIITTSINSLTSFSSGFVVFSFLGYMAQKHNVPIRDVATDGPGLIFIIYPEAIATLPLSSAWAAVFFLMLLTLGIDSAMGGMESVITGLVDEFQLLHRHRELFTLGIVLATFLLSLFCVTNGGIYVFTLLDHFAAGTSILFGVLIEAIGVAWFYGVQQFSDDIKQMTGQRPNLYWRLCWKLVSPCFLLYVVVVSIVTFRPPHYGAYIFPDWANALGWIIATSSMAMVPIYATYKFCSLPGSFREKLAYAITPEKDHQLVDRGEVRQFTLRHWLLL
Assay: Binding affinity to inhibit [3H]mazindol binding in rat corpus striatum P2 synaptosomes
Answers are plain numbers, as −log10 of the molar value.

Would you please look over these solved cases?
[
  {
    "Compound": "COC(=O)C1C(OC(=O)c2ccccc2)CC2CCC1N2CCO (configuration not stated)",
    "pKi": 6.15
  },
  {
    "Compound": "O=C(OC1CC2CCC3C1C(=O)NN23)c1ccccc1 (configuration not stated)",
    "pKi": 4.35
  },
  {
    "Compound": "COC(=O)C1C(OC(=O)c2ccccc2)CC2CCC1N2[N+](=O)[O-] (configuration not stated)",
    "pKi": 5.12
  },
  {
    "Compound": "COC(=O)C1C(OC(=O)c2ccccc2)CC2CCC1N2N=O (configuration not stated)",
    "pKi": 4.00
  },
  {
    "Compound": "COC(=O)CN1C2CCC1C(C(=O)OC)C(OC(=O)c1ccccc1)C2 (configuration not stated)",
    "pKi": 6.32
  }
]

Could you now consider this next compound?
Param item = COC(=O)C1C(OC(=O)c2ccccc2)CC2CCC1N2CC(=O)O (configuration not stated) ; retrieve measured pKi.
6.42
